Target Entity: Recombinant human Syk (amino acids 342-635), GST-Syk kinase fusion protein (Homo sapiens (Human), UniProt P43405)
Procedure Details: Syk Kinase Test (Kinase Glo Luminescence Kinase test)
Run Conditions: read-out: IC50-value (+0.2% BSA in μM); +0.2% BSA
Observation Type: IC50 (µM)
Express your answer in µM, writing the number without its unit.

Item C[C@@H](Oc1cc(-c2ccccn2)cc2ncccc12)[C@H]1CNC(=O)C1 [Example 6] has what recorded IC50?
0.0017

====

Target Entity: Recombinant human Syk (amino acids 342-635), GST-Syk kinase fusion protein (Homo sapiens (Human))
Procedure Details: Syk Kinase Test (Kinase Glo Luminescence Kinase test)
Run Conditions: read-out: IC50-value (+0.2% HSA in μM); +0.2% HSA
Listed below: log10(IC50) values for each entry.
Please interpret these as log10 of IC50 where IC50 is in µM.

Sample answers from the record:
Cc1nc2ccc(-c3cc(O[C@H](C)[C@H]4CNC(=O)C4)c4cccnc4c3)cc2s1 ... -3.70
Cc1nc2cc(-c3cc(O[C@H](C)[C@H]4CNC(=O)C4)c4cccnc4c3)ccc2[nH]1 ... -3.40
C[C@@H](Oc1cc(-c2ccc3c(c2)CNCC3)cc2ncccc12)[C@H]1CNC(=O)C1 ... -3.40
COc1cc(-c2cc(O[C@H](C)[C@H]3CNC(=O)C3)c3cccnc3c2)ccc1C(F)(F)F ... -2.35
C[C@@H](Oc1cc(-c2ccc3c(c2)ncn3C)cc2ncccc12)[C@H]1CNC(=O)C1 ... -3.52
Cc1c(-c2cc(O[C@H](C)[C@H]3CNC(=O)C3)c3cccnc3c2)cnn1C ... -2.92

Item Cc1nc2cc(-c3cc(O[C@H](C)[C@H]4CNC(=O)C4)c4cccnc4c3)ccc2n1C has what recorded log10(IC50)?
-3.70
